Hello, the source for this data is ChEMBL document CHEMBL2046352, in case you need it.

- Tested on: Mycobacterium tuberculosis
- experimental.protocol: Antimycobacterial activity against Mycobacterium tuberculosis H37Ra assessed as inhibition of microbial growth at 50 ug/ml incubated for 6 days by MABA method
- Type: functional
- conditions.used: 144 h, read-out: GI
Decision: inhibition of growth at 50 µg/mL compared against 60%; not below it gives TRUE, below it gives FALSE.

compound=CCc1cn([C@@H]2O[C@H](COC(C)=O)[C@@H](OC(C)=O)[C@@H]2F)c(=O)[nH]c1=O assayed_target="Mycobacterium tuberculosis" assigned_category=FALSE
compound=CCc1cn2c(nc1=O)O[C@@H]1[C@H](F)[C@H]2O[C@@H]1CO assayed_target="Mycobacterium tuberculosis" assigned_category=FALSE

*Q* Test whether the compound "O=c1[nH]c(=S)c(CO)cn1[C@@H]1O[C@H](CO)[C@@H](O)[C@@H]1O" records inhibition of growth at 50 µg/mL of 60% or higher.
*A* TRUE

*Q* Test whether the compound "CCc1cn([C@@H]2O[C@H](CO)[C@@H](O)[C@@H]2F)c(=O)[nH]c1=S" records inhibition of growth at 50 µg/mL of 60% or higher.
*A* FALSE

*Q* Test whether the compound N[C@@H]1CONC1=O [CYCLOSERINE] records inhibition of growth at 50 µg/mL of 60% or higher.
*A* TRUE

*Q* Test whether the compound "CCc1cn([C@@H]2O[C@H](CO)[C@@H](Br)[C@@H]2F)c(=O)[nH]c1=O" records inhibition of growth at 50 µg/mL of 60% or higher.
*A* TRUE
